Answer each item with its documented combination Emax.
- Test system: SU8686 (Pancreatic Carcinoma)
- protocolNotes: combination Emax (second highest fraction inhibited in the dose matrix, 72 h); higher = more inhibition; extreme values may be limits of the assay
Number only, please.

Q: Find combination Emax (SU8686 (Pancreatic Carcinoma)) for the entry COc1nnc2ccc(N3CCC(c4ccc(OCCN5CCN(C)C(=O)[C@H]5C)cc4)CC3)nn12 [AZD5153] + Cn1cnc2c(F)c(Nc3ccc(Br)cc3Cl)c(C(=O)NOCCO)cc21 [Selumetinib] (first compound max 1 µM, 7x7, partner max 10 µM)
Ans: 0.241

Q: How about COc1nnc2ccc(N3CCC(c4ccc(OCCN5CCN(C)C(=O)[C@H]5C)cc4)CC3)nn12 [AZD5153] + Cc1c2c(nn1C)CSCc1cc(n(C)n1)CSc1cc(c3ccccc3c1)OCCCc1c(C(=O)O)n(C)c3c-2c(Cl)ccc13 [AZD5991] (first compound max 1 µM, 7x7, partner max 1 µM) ?
Ans: 0.134

Q: How about CC(=O)c1c(C)c2cnc(Nc3ccc(N4CCNCC4)cn3)nc2n(C2CCCC2)c1=O [Palbociclib] + Cn1cnc2c(F)c(Nc3ccc(Br)cc3Cl)c(C(=O)NOCCO)cc21 [Selumetinib] (first compound max 10 µM, 7x7, partner max 10 µM) ?
Ans: 0.173

Q: How about NC1(C(=O)N[C@@H](CCO)c2ccc(Cl)cc2)CCN(c2ncnc3[nH]ccc23)CC1 [Capivasertib] + C[C@@H]1COCCN1C2=NC(=NC(=C2)C3(CC3)[S@](=N)(=O)C)C4=C5C=CNC5=NC=C4 [AZD6738] (first compound max 10 µM, 7x7, partner max 10 µM) ?
Ans: 0.166

Q: How about Cc1c2c(nn1C)CSCc1cc(n(C)n1)CSc1cc(c3ccccc3c1)OCCCc1c(C(=O)O)n(C)c3c-2c(Cl)ccc13 [AZD5991] + Cn1cnc2c(F)c(Nc3ccc(Br)cc3Cl)c(C(=O)NOCCO)cc21 [Selumetinib] (first compound max 1 µM, 7x7, partner max 3 µM) ?
Ans: 0.334

Q: How about CC1(C)CCC(CN2CCN(c3ccc(C(=O)NS(=O)(=O)c4ccc(NCC5CCOCC5)c([N+](=O)[O-])c4)c(Oc4cnc5[nH]ccc5c4)c3)CC2)=C(c2ccc(Cl)cc2)C1 [Venetoclax] + C[C@@H](Nc1cc(F)cc(F)c1)c1cc(C(=O)N(C)C)cc2c(=O)cc(N3CCOCC3)oc12 [AZD8186] (first compound max 1 µM, 7x7, partner max 3 µM) ?
Ans: 0.127

Q: How about COc1nnc2ccc(N3CCC(c4ccc(OCCN5CCN(C)C(=O)[C@H]5C)cc4)CC3)nn12 [AZD5153] + C=CCn1c(=O)c2cnc(Nc3ccc(N4CCN(C)CC4)cc3)nc2n1-c1cccc(C(C)(C)O)n1 [AZD1775] (first compound max 1 µM, partner max 1 µM) ?
Ans: 0.171

Q: How about CN(CCO)CC[C@H](CSc1ccccc1)Nc1ccc(S(=O)(=O)NC(=O)c2ccc(N3CCC([C@@H](O)c4ccccc4-c4ccc(Cl)cc4)CC3)cc2)cc1S(=O)(=O)C(F)(F)F [AZD4320] + Cc1cc2ncnn2cc1Nc1ncc2c(n1)n(C1CCOCC1)c(=O)n2C [AZD7648] (first compound max 1 µM, 7x7, partner max 10 µM) ?
Ans: 0.0978

----------
- Tested on: D-263MG (Glioblastoma);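 further: after 72 h of two-drug dosing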
- protocolNotes: Bliss excess, mean over the matrix (fraction); higher = more synergy
Answer each item with its documented Bliss excess.
Number only, please.

Q: Param item = CC1(C)CCC(CN2CCN(c3ccc(C(=O)NS(=O)(=O)c4ccc(NCC5CCOCC5)c([N+](=O)[O-])c4)c(Oc4cnc5[nH]ccc5c4)c3)CC2)=C(c2ccc(Cl)cc2)C1 [Venetoclax] + CCN(CCO)CCCOc1ccc2c(Nc3cc(CC(=O)Nc4cccc(F)c4)[nH]n3)ncnc2c1 [AZD2811] (first compound max 1 µM, 7x7, partner max 1 µM) ; retrieve measured Bliss excess.
Ans: 0.0431

Q: How about CC1(C)CCC(CN2CCN(c3ccc(C(=O)NS(=O)(=O)c4ccc(NCC5CCOCC5)c([N+](=O)[O-])c4)c(Oc4cnc5[nH]ccc5c4)c3)CC2)=C(c2ccc(Cl)cc2)C1 [Venetoclax] + CN(C)CCCOc1ccc(-c2ccc3ncc4c(c3c2)n(C2CCOCC2)c(=O)n4C)cn1 [AZD0156] (first compound max 1 µM, 7x7, partner max 1 µM) ?
Ans: 0.0045

----------
Answer each item with its documented combination Emax.
- Tested on: SW13 (Other Solid Carcinomas)
- protocolNotes: combination Emax (second highest fraction inhibited in the dose matrix, 72 h); higher = more inhibition; extreme values may be limits of the assay
Number only, please.

Q: Param item = Cc1cc2ncnn2cc1Nc1ncc2c(n1)n(C1CCOCC1)c(=O)n2C [AZD7648] + C[C@@H]1COCCN1C2=NC(=NC(=C2)C3(CC3)[S@](=N)(=O)C)C4=C5C=CNC5=NC=C4 [AZD6738] (first compound max 10 µM, 7x7, partner max 10 µM) ; retrieve measured combination Emax.
Ans: 0.499

Q: How about CC1(C)CCC(CN2CCN(c3ccc(C(=O)NS(=O)(=O)c4ccc(NCC5CCOCC5)c([N+](=O)[O-])c4)c(Oc4cnc5[nH]ccc5c4)c3)CC2)=C(c2ccc(Cl)cc2)C1 [Venetoclax] + CCN(CCO)CCCOc1ccc2c(Nc3cc(CC(=O)Nc4cccc(F)c4)[nH]n3)ncnc2c1 [AZD2811] (first compound max 1 µM, 7x7, partner max 1 µM) ?
Ans: 0.402

Q: How about Cc1cc2ncnn2cc1Nc1ncc2c(n1)n(C1CCOCC1)c(=O)n2C [AZD7648] + CCN(CCO)CCCOc1ccc2c(Nc3cc(CC(=O)Nc4cccc(F)c4)[nH]n3)ncnc2c1 [AZD2811] (first compound max 10 µM, 7x7, partner max 1 µM) ?
Ans: 0.506

Q: How about CN(CCO)CC[C@H](CSc1ccccc1)Nc1ccc(S(=O)(=O)NC(=O)c2ccc(N3CCC([C@@H](O)c4ccccc4-c4ccc(Cl)cc4)CC3)cc2)cc1S(=O)(=O)C(F)(F)F [AZD4320] + C[C@@H](Nc1cc(F)cc(F)c1)c1cc(C(=O)N(C)C)cc2c(=O)cc(N3CCOCC3)oc12 [AZD8186] (first compound max 1 µM, 7x7, partner max 3 µM) ?
Ans: 0.592

Q: How about Cc1nc(-c2cn3c(n2)-c2ccc(-c4cnn(C(C)(C)C(N)=O)c4)cc2OCC3)n(C(C)C)n1 [Taselisib] + O=C(Nc1ccc2[nH]nc(-c3ccncc3)c2c1)[C@@H]1CCN(CC(=O)N2CCN(c3ccc(-c4ncccn4)cc3)CC2)C1 [SCH772984] (first compound max 10 µM, 7x7, partner max 5 µM) ?
Ans: 0.894

Q: How about CN(CCO)CC[C@H](CSc1ccccc1)Nc1ccc(S(=O)(=O)NC(=O)c2ccc(N3CCC([C@@H](O)c4ccccc4-c4ccc(Cl)cc4)CC3)cc2)cc1S(=O)(=O)C(F)(F)F [AZD4320] + CN(C)CCCOc1ccc(-c2ccc3ncc4c(c3c2)n(C2CCOCC2)c(=O)n4C)cn1 [AZD0156] (first compound max 1 µM, 7x7, partner max 1 µM) ?
Ans: 0.14

Q: How about NC1(C(=O)N[C@@H](CCO)c2ccc(Cl)cc2)CCN(c2ncnc3[nH]ccc23)CC1 [Capivasertib] + CCN(CCO)CCCOc1ccc2c(Nc3cc(CC(=O)Nc4cccc(F)c4)[nH]n3)ncnc2c1 [AZD2811] (first compound max 10 µM, 7x7, partner max 1 µM) ?
Ans: 0.515

Q: How about O=C(c1cc(Cc2n[nH]c(=O)c3ccccc23)ccc1F)N1CCN(C(=O)C2CC2)CC1 [Olaparib] + Cc1c2c(nn1C)CSCc1cc(n(C)n1)CSc1cc(c3ccccc3c1)OCCCc1c(C(=O)O)n(C)c3c-2c(Cl)ccc13 [AZD5991] (first compound max 10 µM, 7x7, partner max 1 µM) ?
Ans: 0.763

Q: How about CS(=O)(=O)CCNCc1ccc(-c2ccc3ncnc(Nc4ccc(OCc5cccc(F)c5)c(Cl)c4)c3c2)o1 [Lapatinib] + Cn1cnc2c(F)c(Nc3ccc(Br)cc3Cl)c(C(=O)NOCCO)cc21 [Selumetinib] (first compound max 10 µM, 7x7, partner max 10 µM) ?
Ans: 0.687

Q: How about COc1cccc(OCCCN)c1-c1cc(Nc2cnc(C#N)cn2)n[nH]1 [Prexasertib] + C=CCn1c(=O)c2cnc(Nc3ccc(N4CCN(C)CC4)cc3)nc2n1-c1cccc(C(C)(C)O)n1 [AZD1775] (first compound max 1 µM, partner max 1 µM) ?
Ans: 0.526

Q: How about CN(C)CCCOc1ccc(-c2ccc3ncc4c(c3c2)n(C2CCOCC2)c(=O)n4C)cn1 [AZD0156] + CCN(CCO)CCCOc1ccc2c(Nc3cc(CC(=O)Nc4cccc(F)c4)[nH]n3)ncnc2c1 [AZD2811] (first compound max 1 µM, 7x7, partner max 1 µM) ?
Ans: 0.407

Q: How about COc1nnc2ccc(N3CCC(c4ccc(OCCN5CCN(C)C(=O)[C@H]5C)cc4)CC3)nn12 [AZD5153] + CCN(CCO)CCCOc1ccc2c(Nc3cc(CC(=O)Nc4cccc(F)c4)[nH]n3)ncnc2c1 [AZD2811] (first compound max 1 µM, 7x7, partner max 1 µM) ?
Ans: 0.455

Q: How about NC1(C(=O)N[C@@H](CCO)c2ccc(Cl)cc2)CCN(c2ncnc3[nH]ccc23)CC1 [Capivasertib] + Cn1cnc2c(F)c(Nc3ccc(Br)cc3Cl)c(C(=O)NOCCO)cc21 [Selumetinib] (first compound max 10 µM, 7x7, partner max 10 µM) ?
Ans: 0.65
